The reported measurements were obtained from patent US12084472B2.

Measured EC50, listed per entry for reference.
Biological target: human TGR5 (Homo sapiens, UniProt Q8TDU6)
Construct: expressed in transfected cells; host or cells: HEK293
Sequence (Q8TDU6 whole entry): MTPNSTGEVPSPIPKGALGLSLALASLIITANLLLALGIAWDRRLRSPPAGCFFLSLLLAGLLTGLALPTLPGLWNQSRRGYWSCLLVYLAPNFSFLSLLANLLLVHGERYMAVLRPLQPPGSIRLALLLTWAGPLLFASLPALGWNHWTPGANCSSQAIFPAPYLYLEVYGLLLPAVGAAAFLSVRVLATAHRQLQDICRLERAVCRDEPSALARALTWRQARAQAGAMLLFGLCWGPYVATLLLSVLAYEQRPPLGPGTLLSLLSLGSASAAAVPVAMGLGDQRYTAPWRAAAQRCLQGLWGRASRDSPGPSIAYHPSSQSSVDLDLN
Test: Cell-based TGR5 assay (cAMP generation, HTRF)
Conditions: HEK293 cells stably transfected with human TGR5; cAMP by HTRF; 30 minutes at 37° C.; read-out: pEC50 Human TGR5 (converted)

The cases that follow already have their EC50 on record.
| molecule | EC50 |
| --- | --- |
| Cc1cc(CNC2(c3cnccc3-c3ccccc3OC3CC3)CC2)c(C)cc1CCCCNC(=O)NC[C@H](O)[C@@H](O)[C@H](O)[C@H](O)CO (stereo in doubt) | 126 to 1000 nM |
| Fc1ccc(OC2CC2)c(-c2ccncc2C2(NCc3cc(Cl)ccc3Cl)CC2)c1 | < 100 nM |
| O=C(NCCCC[C@H](NS(=O)(=O)c1ccc(Cl)c(COC2(c3cnccc3-c3ccccc3OC3CC3)CC2)c1)C(=O)O)NC[C@H](O)[C@@H](O)[C@H](O)[C@H](O)CO | 126 to 1000 nM |
| CCc1ccc(C(C)CCCC(=O)NC[C@H](O)[C@@H](O)[C@H](O)[C@H](O)CO)cc1CNC1(c2cnccc2-c2ccccc2OC2CC2)CC1 (some centres unmarked) | < 100 nM |
| Cc1ccc([C@H](C)CCCC(=O)N(C)C[C@H](O)[C@@H](O)[C@H](O)[C@H](O)CO)cc1CNC1(c2cnccc2-c2ccccc2OC2CC2)CC1 (single isomer, unassigned) | < 100 nM |
| CC(CCCCNC(=O)[C@@H](O)[C@@H](O)[C@H](O)[C@@H](O)CO)c1ccc(Cl)c(COC2(c3cnccc3-c3ccccc3OC3CC3)CC2)c1 (some centres unmarked) | < 100 nM |
| O=C(NCCCCCNS(=O)(=O)c1ccc(Cl)c(COC2(c3cnccc3-c3ccccc3OC3CC3)CC2)c1)N[C@@H](CO)[C@@H](O)[C@H](O)[C@H](O)CO (stereo in doubt) | < 100 nM |
| CSc1ccccc1-c1ccncc1C1(OCc2cc(Cl)ccc2Cl)CC1 | 126 to 1000 nM |
| CN(CC(=O)O)C[C@H](NC(=O)CCCCc1cc(Cl)c(COC2(c3cnccc3-c3ccccc3OC3CC3)CC2)cc1Cl)[C@@H](O)[C@H](O)[C@H](O)CO (stereo in doubt) | < 100 nM |
| O=C(O)CCC(CCC(=O)O)(CCC(=O)O)NC(=O)CCCCc1cc(Cl)c(COC2(c3cnccc3-c3ccccc3OC3CC3)CC2)cc1Cl | 126 to 1000 nM |

Below: the item to evaluate.
Query: Please list EC50 recorded for the molecule CN(CCCCNC(=O)N[C@@H](CO)[C@@H](O)[C@H](O)[C@H](O)CO)S(=O)(=O)c1ccc(Cl)c(COC2(c3cnccc3-c3ccccc3OC3CC3)CC2)c1
Response: < 100 nM

###

Target: human TGR5 (Homo sapiens, UniProt Q8TDU6)
Construct: expressed in transfected cells; host or cells: HEK293
Assay: Cell-based TGR5 assay (cAMP generation, HTRF)
Conditions: HEK293 cells stably transfected with human TGR5; cAMP by HTRF; 30 minutes at 37° C.; read-out: pEC50 Human TGR5 (converted)
quantity-name: EC50

The cases that follow already have their EC50 on record.
| compound | EC50 |
| --- | --- |
| COCCN(CCCC(C)c1ccc(C)c(CNC2(c3cnccc3-c3ccccc3OC3CC3)CC2)c1)C(=O)[C@@H](O)[C@@H](O)[C@H](O)[C@@H](O)CO (some centres unmarked) | < 100 nM |
| Cc1ccc(Cl)c(COC2(c3cnccc3-c3ccccc3OC3CC3)CC2)c1 | < 100 nM |
| O=C([C@@H](O)[C@@H](O)[C@H](O)[C@@H](O)CO)N(CCCCSc1ccc(Cl)c(CNC2(c3cnccc3-c3ccccc3OC3CC3)CC2)c1)C1CCS(=O)(=O)CC1 | < 100 nM |
| O=C(O)CCCNC(=O)N(CCCCc1cc(Cl)c(COC2(c3cnccc3-c3ccccc3OC3CC3)CC2)cc1Cl)C[C@H](O)[C@@H](O)[C@H](O)[C@H](O)CO | 126 to 1000 nM |
| O=C(CCCCc1cc(Cl)c(COC2(c3cnccc3-c3ccccc3OC3CC3)CC2)cc1Cl)N[C@@H](C(=O)O)[C@@H](O)[C@H](O)[C@H](O)CO | < 100 nM |
| CC(C)Oc1ccccc1-c1ccncc1C1(NCc2cc(Cl)ccc2Cl)CC1 | < 100 nM |

Query: Please list EC50 recorded for the compound CN(C[C@H](O)[C@@H](O)[C@H](O)[C@H](O)CO)C(=O)CN1CCN(CCNC(=O)CCCCc2cc(Cl)c(COC3(c4cnccc4-c4ccccc4OC4CC4)CC3)cc2Cl)CC1
Response: < 100 nM

Query: Please list EC50 recorded for the compound O=C(NCCC1CCN(S(=O)(=O)c2ccc(Cl)c(COC3(c4cnccc4-c4ccccc4OC4CC4)CC3)c2)CC1)NC[C@H](O)[C@@H](O)[C@H](O)[C@H](O)CO
Response: < 100 nM

Query: Please list EC50 recorded for the compound O=C([C@@H](O)[C@@H](O)[C@H](O)[C@@H](O)CO)N(CCCSc1ccc(Cl)c(CNC2(c3cnccc3-c3ccccc3OC3CC3)CC2)c1)CC1CCOCC1
Response: 126 to 1000 nM

Query: Please list EC50 recorded for the compound O=C(NCCCCCS(=O)(=O)c1ccc(Cl)c(COC2(c3cnccc3-c3ccccc3OC3CC3)CC2)c1)NC[C@H](O)[C@@H](O)[C@H](O)[C@H](O)CO
Response: < 100 nM

Query: Please list EC50 recorded for the compound NC(=O)CN(C[C@H](O)[C@@H](O)[C@H](O)[C@H](O)CO)C(=O)CCCSc1ccc(Cl)c(COC2(c3cnccc3-c3ccccc3OC3CC3)CC2)c1
Response: 126 to 1000 nM
